- target-entity: Endothelial lipase (EL) (Homo sapiens, UniProt Q9Y5X9)
- Construct: HT-1080 cells that were transformed using RAGE technology (Athersys) to overexpress endogenous EL; endogenous in cells; conditioned medium used
- Sequence (Q9Y5X9 21-500): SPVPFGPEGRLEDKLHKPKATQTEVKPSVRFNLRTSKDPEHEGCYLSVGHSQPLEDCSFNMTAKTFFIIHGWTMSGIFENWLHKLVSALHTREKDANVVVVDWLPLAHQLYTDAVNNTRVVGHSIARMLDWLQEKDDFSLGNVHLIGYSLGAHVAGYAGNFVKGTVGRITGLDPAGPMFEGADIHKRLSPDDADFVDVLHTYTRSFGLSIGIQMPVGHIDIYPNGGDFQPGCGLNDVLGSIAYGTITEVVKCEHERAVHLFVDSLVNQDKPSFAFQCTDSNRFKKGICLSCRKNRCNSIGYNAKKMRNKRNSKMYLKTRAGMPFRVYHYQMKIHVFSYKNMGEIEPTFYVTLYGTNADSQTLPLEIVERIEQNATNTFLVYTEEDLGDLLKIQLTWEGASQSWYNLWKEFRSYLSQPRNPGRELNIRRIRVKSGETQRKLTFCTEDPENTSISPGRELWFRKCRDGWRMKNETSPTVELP
- test-description: Endothelial lipase (EL) enzymatic assay, fluorescent substrate A10070 in DMPG vesicles
- Format: biochemical
- cond: EL from conditioned media of HT-1080 cells; compound preincubated 30 min at 37° C; read-out: EL IC50
endpoint: IC50

Would you please look over these solved cases?
compound: Cn1cc(-c2cc3sc(C(c4nnc(CNS(N)(=O)=O)o4)S(=O)(=O)Cc4ccccc4)nc3cc2F)cn1 (stereo not drawn) [Example 158]
IC50: < 10 nM
--
compound: CC(C)(C)OC(=O)NCc1nnc(C(c2nc3ccc(-c4ccccc4)cc3s2)S(C)(=O)=O)o1 (stereo not drawn) [Example 83]
IC50: < 10 nM

Query string: Note down IC50 recorded for CS(=O)(=O)C(c1nnc(CC2SC(=O)NC2=O)o1)c1nc2ccc(C#N)cc2s1 (stereo not drawn) [Example 190]
Result string: < 10 nM

Query string: Report measured IC50; entry is CN(C)C(=O)c1ccc(-c2ccc3nc(C(c4nnc(CNS(=O)(=O)NC(=O)OC(C)(C)C)o4)S(=O)(=O)Cc4ccccc4)sc3c2)cc1Cl (stereo not drawn) [Example 141]
Result string: < 10 nM

Query string: Input NS(=O)(=O)NCc1nnc(C(c2nc3ccc(-c4ccccc4)cc3s2)S(=O)(=O)Cc2ccc(F)cc2)o1 (stereo not drawn) [Example 69] , output reported IC50.
Result string: < 10 nM

Query string: Annotate the compound NS(=O)(=O)NCc1nnc(C(c2nc3ccc(-c4ccccc4)cc3s2)S(=O)(=O)Cc2ccc(Cl)cc2)o1 (stereo not drawn) [Example 58] with its measured IC50.
Result string: < 10 nM

Query string: Give recorded IC50. Cc1cccc(CS(=O)(=O)C(c2nnc(CNS(N)(=O)=O)o2)c2nc3ccc(-c4ccccc4)cc3s2)c1 (stereo not drawn) [Example 64]
Result string: < 10 nM
